- TARGET_DESC: DNA 5-C-methyltransferase (murine, Friend erythroleukemia cells) (Mus musculus, UniProt P13864 P13864:1-1620)
- Sequence (P13864 whole entry, one chain of several): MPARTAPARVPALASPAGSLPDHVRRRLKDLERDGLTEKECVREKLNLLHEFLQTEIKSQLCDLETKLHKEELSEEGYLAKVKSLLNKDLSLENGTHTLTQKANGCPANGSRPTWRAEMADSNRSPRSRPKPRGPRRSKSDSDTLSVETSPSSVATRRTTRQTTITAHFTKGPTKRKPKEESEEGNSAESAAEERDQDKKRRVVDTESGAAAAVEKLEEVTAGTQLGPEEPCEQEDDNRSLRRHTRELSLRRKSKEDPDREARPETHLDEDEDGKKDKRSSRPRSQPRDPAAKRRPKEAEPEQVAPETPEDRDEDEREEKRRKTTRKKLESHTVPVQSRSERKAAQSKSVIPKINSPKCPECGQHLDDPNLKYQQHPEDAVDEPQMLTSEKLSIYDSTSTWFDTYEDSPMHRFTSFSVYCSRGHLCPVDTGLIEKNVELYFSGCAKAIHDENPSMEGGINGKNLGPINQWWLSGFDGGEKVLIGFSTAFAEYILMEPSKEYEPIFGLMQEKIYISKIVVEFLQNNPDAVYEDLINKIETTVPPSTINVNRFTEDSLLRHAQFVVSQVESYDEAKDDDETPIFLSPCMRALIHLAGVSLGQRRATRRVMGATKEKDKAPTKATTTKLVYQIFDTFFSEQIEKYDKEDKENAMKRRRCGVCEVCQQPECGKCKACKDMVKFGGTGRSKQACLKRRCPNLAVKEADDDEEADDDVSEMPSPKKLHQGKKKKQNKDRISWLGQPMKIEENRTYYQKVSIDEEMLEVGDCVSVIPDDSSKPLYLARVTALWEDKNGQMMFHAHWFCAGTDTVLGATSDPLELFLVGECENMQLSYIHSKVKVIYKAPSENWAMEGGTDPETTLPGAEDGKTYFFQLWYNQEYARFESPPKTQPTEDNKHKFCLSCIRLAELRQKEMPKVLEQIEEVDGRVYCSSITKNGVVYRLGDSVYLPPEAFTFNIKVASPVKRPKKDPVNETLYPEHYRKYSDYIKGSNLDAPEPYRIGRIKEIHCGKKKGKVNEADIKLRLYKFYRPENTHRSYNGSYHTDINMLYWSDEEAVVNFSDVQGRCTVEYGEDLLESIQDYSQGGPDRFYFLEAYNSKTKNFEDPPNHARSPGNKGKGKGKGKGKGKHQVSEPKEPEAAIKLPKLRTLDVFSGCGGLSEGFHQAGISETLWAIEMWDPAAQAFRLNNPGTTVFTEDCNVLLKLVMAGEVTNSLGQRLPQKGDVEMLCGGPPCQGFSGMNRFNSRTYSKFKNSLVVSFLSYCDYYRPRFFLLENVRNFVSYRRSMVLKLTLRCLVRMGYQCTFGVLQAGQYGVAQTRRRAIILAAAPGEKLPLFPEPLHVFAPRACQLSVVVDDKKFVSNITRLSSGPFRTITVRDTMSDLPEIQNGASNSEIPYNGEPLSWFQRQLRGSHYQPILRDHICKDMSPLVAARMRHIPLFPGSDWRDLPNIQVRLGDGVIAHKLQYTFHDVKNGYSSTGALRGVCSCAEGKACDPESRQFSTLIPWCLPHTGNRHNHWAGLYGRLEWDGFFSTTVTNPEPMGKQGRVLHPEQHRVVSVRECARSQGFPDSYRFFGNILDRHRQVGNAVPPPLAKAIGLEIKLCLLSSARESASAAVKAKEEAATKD
- ASSAY_REMARKS: methylation rate
- EXPERIMENTAL_CONTEXT: protein: extract; tags: 0.3 M NaCl nuclear extract, 100,000 x g supernatant; single approx. 190 kDa species forming covalent complexes
PROPERTY: binding signal

INSERT INTO measurements (binder, reading) VALUES
  ('GATCGCGGATCCGGAATGCGCAAT (ssDNA, 5mC at 12) [A'' 5mC12]', '67 relative to A'),
  ('GATCGCGGATCCGGAATGCGCAAT (ssDNA, 5mC at 11,21) [M4 (SMx)]', '75 relative to A'),
  ('GATCGCGGATCCGGAATGCGCAAT (ssDNA, 5mC at 6) [A'' 5mC6]', '42 relative to A'),
  ('GATCGCGGATCCGGAATGCGCAAT (ssDNA, 5mC at 4) [A'' 5mC4]', '0.4 relative to A'),
  ('GATCGCGGATCCGGAATGCGCAAT (ssDNA, 5mC at 6,19) [A'' 5mC6,19]', '1 relative to A'),
  ('ATTGCGCATTCCGGATCCGCGATC (ssDNA, 5mC at 20) [ASM20]', '2.5 relative to A'),
  ('ATTGCGCATTCCGGATCCGCGATC (ssDNA, 5mC at 17) [ASM17]', '3.5 relative to A'),
  ('GATCGCGGATCCGGAATGCGCAAT (ssDNA, 5mC at 11) [A'' 5mC11]', '1.7 relative to A'),
  ('GATCGCGGATCCGGAATGCGCAAT (ssDNA, 5mC at 21) [A'' 5mC21]', '37 relative to A'),
  ('ATTGCGCATTCCGGATCCGCGATC (ssDNA, 5mC at 18) [ASM18]', '12 relative to A'),
  ('GATCGCGGATCCGGAATGCGCAAT (ssDNA, 5mC at 19) [A'' 5mC19]', '1 relative to A');
